# targetOrTestSystem: HCV polymerase 1A (Δ21 NS5B, H77) (Hepatitis C virus genotype 1a, UniProt P27958)
# Construct: 20 to 50 nM Δ21 NS5B
# Sequence (P27958 2421-2990, stated change not applied): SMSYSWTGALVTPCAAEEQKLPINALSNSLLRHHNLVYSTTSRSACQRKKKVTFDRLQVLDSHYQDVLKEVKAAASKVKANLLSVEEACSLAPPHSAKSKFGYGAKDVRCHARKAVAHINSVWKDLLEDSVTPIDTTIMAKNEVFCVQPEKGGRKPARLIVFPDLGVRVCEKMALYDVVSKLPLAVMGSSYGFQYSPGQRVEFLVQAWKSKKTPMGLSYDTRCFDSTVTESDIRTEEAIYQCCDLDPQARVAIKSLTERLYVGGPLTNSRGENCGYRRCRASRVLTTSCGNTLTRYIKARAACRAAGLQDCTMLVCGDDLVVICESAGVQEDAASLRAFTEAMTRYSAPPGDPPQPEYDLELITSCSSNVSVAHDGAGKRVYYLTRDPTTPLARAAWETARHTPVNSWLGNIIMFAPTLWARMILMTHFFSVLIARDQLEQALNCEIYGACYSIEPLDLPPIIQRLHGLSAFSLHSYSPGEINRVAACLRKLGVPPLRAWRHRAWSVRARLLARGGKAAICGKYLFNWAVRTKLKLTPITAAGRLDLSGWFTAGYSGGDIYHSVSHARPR
# testName: biochemical
# statedConditions: HCV polymerase 1a; read-out: IC50 1a
# Description: Either two-fold serial dilutions (fractional inhibition assay) or a narrower range of dilutions spanning the IC50 of the inhibitor (tight binding assay) of the inhibitors were incubated with 20 mM Tris-Cl pH 7.4, 2 mM MnCl2, 1 mM dithiothreitol, 1 mM ethylene diamine tetraacetic acid (EDTA), 60 to 125 μM GTP and 20 to 50 nM Δ21 NS5B (HCV Strain 1B (BK, Genbank accession number M58335, or H77, Genbank accession number AF011751)) for 15 min at room temperature. […]
readoutLabel: IC50

*Q* Fill blank: measured IC50 of the compound COc1cc(NS(C)(=O)=O)ccc1/C=C/c1cc(N2CCC(=O)NC2=O)cc(C(C)(C)C)c1OC [IA-L1-1.27] is ____.
*A* < 0.01 µM

====

# targetOrTestSystem: HCV polymerase 1B (Δ21 NS5B, HCV Strain 1B BK) (Hepatitis C virus genotype 1b)
# Construct: 20 to 50 nM Δ21 NS5B
# testName: biochemical
# statedConditions: HCV polymerase 1b; read-out: IC50 1b
pIC50: −log10 of the molar value.
readoutLabel: pIC50

*Q* Fill blank: measured pIC50 of the compound COc1cc(NS(C)(=O)=O)ccc1/C=C/c1cc(N2CCC(=O)NC2=O)cc(C(C)(C)C)c1OC [IA-L1-1.27] is ____.
*A* 7.00 to 8.00

====

# targetOrTestSystem: HCV polymerase 1B (Δ21 NS5B, HCV Strain 1B BK) (Hepatitis C virus genotype 1b, UniProt P26663)
# Construct: 20 to 50 nM Δ21 NS5B
# Sequence (P26663 2420-2989, stated change not applied): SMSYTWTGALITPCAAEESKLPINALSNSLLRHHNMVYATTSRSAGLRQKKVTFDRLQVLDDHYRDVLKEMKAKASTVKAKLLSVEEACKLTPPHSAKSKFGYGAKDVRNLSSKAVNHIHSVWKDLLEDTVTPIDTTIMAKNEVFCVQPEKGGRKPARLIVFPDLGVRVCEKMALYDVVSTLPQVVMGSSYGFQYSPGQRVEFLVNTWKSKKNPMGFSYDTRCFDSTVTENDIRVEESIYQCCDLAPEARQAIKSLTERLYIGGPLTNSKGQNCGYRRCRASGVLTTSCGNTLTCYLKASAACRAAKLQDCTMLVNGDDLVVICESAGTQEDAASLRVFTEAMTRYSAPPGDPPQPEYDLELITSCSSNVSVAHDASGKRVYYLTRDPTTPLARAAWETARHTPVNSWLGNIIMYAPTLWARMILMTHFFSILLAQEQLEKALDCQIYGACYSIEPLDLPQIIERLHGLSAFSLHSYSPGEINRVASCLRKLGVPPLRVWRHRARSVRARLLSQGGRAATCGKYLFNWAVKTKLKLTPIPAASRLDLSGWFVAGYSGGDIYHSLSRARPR
# testName: biochemical
Items are presented alongside their recorded IC50.

Previously resolved entries follow.
| molecule | IC50 |
| --- | --- |
| COc1c(/C=C/c2ccc(NS(C)(=O)=O)cc2C=O)cc(-n2ccc(=O)[nH]c2=O)cc1C(C)(C)C [IB-L1-1.6] | 10 to 100 nM |
| COc1c(/C=C/c2ccc(NS(C)(=O)=O)cc2CN2CCCC2)cc(-n2ccc(=O)[nH]c2=O)cc1C(C)(C)C [IB-L1-1.33] | 100 to 1000 nM |
| COc1c(/C=C/c2ccc(NS(C)(=O)=O)cc2)cc(-n2cc(Cl)c(=O)[nH]c2=O)cc1C(C)(C)C [IB-L1-1.20] | 10 to 100 nM |
| COc1c(/C=C(\Cl)c2ccc(NS(C)(=O)=O)cc2)cc(N2CCC(=O)NC2=O)cc1C(C)(C)C [IA-L1-1.3] | < 10 nM |
| COc1c(/C=C/c2ccc(NS(C)(=O)=O)cc2C(=O)N(C)C2CCS(=O)(=O)C2)cc(-n2ccc(=O)[nH]c2=O)cc1C(C)(C)C (stereo not shown) [IB-L1-1.18] | 10 to 100 nM |

*Q* Fill blank: measured IC50 of the molecule COc1c(/C=C/c2ccc(NS(C)(=O)=O)cc2C(=O)N2CCOCC2)cc(-n2ccc(=O)[nH]c2=O)cc1C(C)(C)C [IB-L1-1.23] is ____.
*A* 10 to 100 nM

*Q* Fill blank: measured IC50 of the molecule COc1c(/C=C/c2ccc(NS(C)(=O)=O)cc2-c2ncco2)cc(-n2ccc(=O)[nH]c2=O)cc1C(C)(C)C [IB-L1-1.26] is ____.
*A* 10 to 100 nM

====

# targetOrTestSystem: HCV polymerase 1B (Δ21 NS5B, HCV Strain 1B BK) (Hepatitis C virus genotype 1b)
# Construct: 20 to 50 nM Δ21 NS5B
# testName: biochemical
# Description: Either two-fold serial dilutions (fractional inhibition assay) or a narrower range of dilutions spanning the IC50 of the inhibitor (tight binding assay) of the inhibitors were incubated with 20 mM Tris-Cl pH 7.4, 2 mM MnCl2, 1 mM dithiothreitol, 1 mM ethylene diamine tetraacetic acid (EDTA), 60 to 125 μM GTP and 20 to 50 nM Δ21 NS5B (HCV Strain 1B (BK, Genbank accession number M58335, or H77, Genbank accession number AF011751)) for 15 min at room temperature. […]
pIC50: −log10 of the molar value.
readoutLabel: pIC50

Previously resolved entries follow.
| compound | pIC50 |
| --- | --- |
| COc1c(/C=C/c2ccc(F)cc2)cc(N2CCC(=O)NC2=O)cc1C(C)(C)C | 6.00 to 7.00 |
| COc1ccc(/C=C/c2cc(N3CCC(=O)NC3=O)cc(C(C)(C)C)c2OC)cc1 | < 6.00 |
| COc1c(/C=C/c2ccc(NS(C)(=O)=O)cc2C(=O)N(C)C)cc(-n2ccc(=O)[nH]c2=O)cc1C(C)(C)C | 7.00 to 8.00 |

*Q* Fill blank: measured pIC50 of the compound CC(C)(C)c1cc(/C=C/c2ccc([N+](=O)[O-])cc2)cc(N2CCC(=O)NC2=O)c1 is ____.
*A* < 6.00

*Q* Fill blank: measured pIC50 of the compound COCCN(C)C(=O)c1cc(NS(C)(=O)=O)ccc1/C=C/c1cc(-n2ccc(=O)[nH]c2=O)cc(C(C)(C)C)c1OC is ____.
*A* 7.00 to 8.00

*Q* Fill blank: measured pIC50 of the compound COc1c(CCc2ccc(NS(C)(=O)=O)cc2)cc(N2CCC(=O)NC2=O)cc1C(C)(C)C is ____.
*A* 7.00 to 8.00

*Q* Fill blank: measured pIC50 of the compound CO/N=C/c1cc(NS(C)(=O)=O)ccc1/C=C/c1cc(-n2ccc(=O)[nH]c2=O)cc(C(C)(C)C)c1OC is ____.
*A* 7.00 to 8.00

*Q* Fill blank: measured pIC50 of the compound COC(=O)c1cc(NS(C)(=O)=O)ccc1CCc1cc(-n2ccc(=O)[nH]c2=O)cc(C(C)(C)C)c1OC is ____.
*A* 7.00 to 8.00

*Q* Fill blank: measured pIC50 of the compound COc1c(/C=C(\C)c2ccc(NS(C)(=O)=O)cc2)cc(N2CCC(=O)NC2=O)cc1C(C)(C)C is ____.
*A* 7.00 to 8.00

*Q* Fill blank: measured pIC50 of the compound COc1c(/C=C/c2ccc(NS(C)(=O)=O)cc2)cc(-n2cc(F)c(=O)[nH]c2=O)cc1C(C)(C)C is ____.
*A* 7.00 to 8.00

*Q* Fill blank: measured pIC50 of the compound COc1c(/C=C/c2ccc(NS(C)(=O)=O)cc2)cc(-n2ccc(=O)[nH]c2=O)cc1-c1ccco1 is ____.
*A* 7.00 to 8.00

*Q* Fill blank: measured pIC50 of the compound CC(C)(C)c1cc(/C=C/c2ccc(NS(C)(=O)=O)cc2)cc(N2CCC(=O)NC2=O)c1 is ____.
*A* > 8.00

*Q* Fill blank: measured pIC50 of the compound COc1c(/C=C/c2cc(F)c(NS(C)(=O)=O)cc2C)cc(-n2ccc(=O)[nH]c2=O)cc1C(C)(C)C is ____.
*A* 7.00 to 8.00

*Q* Fill blank: measured pIC50 of the compound COc1c(/C=C/c2ccc([N+](=O)[O-])cc2)cc(N2CCC(=O)NC2=O)cc1C(C)(C)C is ____.
*A* 6.00 to 7.00

*Q* Fill blank: measured pIC50 of the compound COc1c(/C=C/c2ccc(NS(C)(=O)=O)cc2)cc(-n2ccc(=O)[nH]c2=O)cc1-c1ccoc1 is ____.
*A* 7.00 to 8.00

*Q* Fill blank: measured pIC50 of the compound CCOC(=O)c1cc(NS(C)(=O)=O)ccc1/C=C/c1cc(-n2ccc(=O)[nH]c2=O)cc(C(C)(C)C)c1OC is ____.
*A* 7.00 to 8.00

*Q* Fill blank: measured pIC50 of the compound COc1c(/C=C(\Cl)c2ccc([N+](=O)[O-])cc2)cc(N2CCC(=O)NC2=O)cc1C(C)(C)C is ____.
*A* 6.00 to 7.00

*Q* Fill blank: measured pIC50 of the compound CNC(=O)c1cc(NS(C)(=O)=O)ccc1/C=C/c1cc(-n2ccc(=O)[nH]c2=O)cc(C(C)(C)C)c1OC is ____.
*A* 7.00 to 8.00

*Q* Fill blank: measured pIC50 of the compound COCc1cc(NS(C)(=O)=O)ccc1/C=C/c1cc(-n2ccc(=O)[nH]c2=O)cc(C(C)(C)C)c1OC is ____.
*A* 7.00 to 8.00

*Q* Fill blank: measured pIC50 of the compound COc1c(/C=C/c2ccccc2)cc(N2CCC(=O)NC2=O)cc1C(C)(C)C is ____.
*A* 6.00 to 7.00

*Q* Fill blank: measured pIC50 of the compound COc1c(/C=C/c2ccc(NS(C)(=O)=O)cc2CO)cc(-n2ccc(=O)[nH]c2=O)cc1C(C)(C)C is ____.
*A* 7.00 to 8.00

*Q* Fill blank: measured pIC50 of the compound COC(=O)c1cc(NS(C)(=O)=O)ccc1/C=C/c1cc(-n2ccc(=O)[nH]c2=O)cc(C(C)(C)C)c1OC is ____.
*A* 7.00 to 8.00

*Q* Fill blank: measured pIC50 of the compound COc1c(/C=C/c2ccc(NS(C)(=O)=O)cc2CN2CC(O)C2)cc(-n2ccc(=O)[nH]c2=O)cc1C(C)(C)C is ____.
*A* 7.00 to 8.00

*Q* Fill blank: measured pIC50 of the compound COc1c(/C=C/c2ccc(NS(C)(=O)=O)cc2C=NO)cc(-n2ccc(=O)[nH]c2=O)cc1C(C)(C)C is ____.
*A* 7.00 to 8.00

*Q* Fill blank: measured pIC50 of the compound COc1c(/C=C\c2ccc(NS(C)(=O)=O)cc2)cc(-n2ccc(=O)[nH]c2=O)cc1C(C)(C)C is ____.
*A* < 6.00
